Reported pKd is given for each of the following molecules.
# study target: VCB complex (Homo sapiens, UniProt P40337)
# Construct: His6 (TEV site) (N, cleaved yes); made in house
# Sequence (P40337 54-213): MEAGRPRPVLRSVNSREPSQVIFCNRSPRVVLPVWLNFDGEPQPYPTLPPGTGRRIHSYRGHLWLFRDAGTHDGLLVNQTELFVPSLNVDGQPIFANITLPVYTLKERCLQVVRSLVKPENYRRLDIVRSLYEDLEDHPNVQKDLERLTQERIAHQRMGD
# Sequence (Q15369 17-112 partner limits assumed): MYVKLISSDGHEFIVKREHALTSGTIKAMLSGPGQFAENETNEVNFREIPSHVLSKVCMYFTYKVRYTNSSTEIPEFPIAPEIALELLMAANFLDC
# Sequence (Q15370 1-104 partner limits assumed): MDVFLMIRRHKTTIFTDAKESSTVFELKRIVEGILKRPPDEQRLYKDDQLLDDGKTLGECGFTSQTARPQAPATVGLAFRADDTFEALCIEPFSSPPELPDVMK
# protocol notes: SPR binary binding to immobilised VCB complex
# run parameters: binary binding to VCB, mean ± SD
pKd: −log10 of the molar value.
readout label: pKd

cpd_smiles=Cc1ncsc1-c1ccc([C@H](CC[C@H](C)CCN2CCC(c3ccc4c(c3)n(C3CCCC3)c3nc(=O)c5c(Br)cccc5n43)CC2)NC(=O)[C@@H]2C[C@H](O)CN2C(=O)[C@@H](NC(=O)C2(F)CC2)C(C)(C)C)cc1 readout_label=pKd recorded_value=6.20
cpd_smiles=Cc1ncsc1-c1ccc([C@H](CC[C@@H](C)CCN2CCC(c3ccc4c(c3)n(C3CCCC3)c3nc(=O)c5c(Br)cccc5n43)CC2)NC(=O)[C@@H]2C[C@@H](O)CN2C(=O)[C@@H](NC(=O)C2(F)CC2)C(C)(C)C)cc1 readout_label=pKd recorded_value=7.89

---

# protocol notes: Cell viability assay (CellTiter Glo) in a panel of cell lines;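 note: percent of DMSO-treated control cells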
# Type: cell-based, human
# run parameters: human, TOV-112D cells, TOV-112D; log10 conc -6.50446 mol/l
readout label: viability at 0.313 µM (%)

molecule="Cc1ncsc1-c1ccc(C(CCC(C)CCN2CCC(c3ccc4c(c3)n(C3CCCC3)c3nc(=O)c5c(Br)cccc5n43)CC2)NC(=O)C2CC(O)CN2C(=O)C(NC(=O)C2(F)CC2)C(C)(C)C)cc1 (stereo not shown)" readout_label="viability at 0.313 µM" recorded_value=103

---

# study target: SMARCA2 (Homo sapiens, UniProt P51531)
# Sequence (P51531 whole entry): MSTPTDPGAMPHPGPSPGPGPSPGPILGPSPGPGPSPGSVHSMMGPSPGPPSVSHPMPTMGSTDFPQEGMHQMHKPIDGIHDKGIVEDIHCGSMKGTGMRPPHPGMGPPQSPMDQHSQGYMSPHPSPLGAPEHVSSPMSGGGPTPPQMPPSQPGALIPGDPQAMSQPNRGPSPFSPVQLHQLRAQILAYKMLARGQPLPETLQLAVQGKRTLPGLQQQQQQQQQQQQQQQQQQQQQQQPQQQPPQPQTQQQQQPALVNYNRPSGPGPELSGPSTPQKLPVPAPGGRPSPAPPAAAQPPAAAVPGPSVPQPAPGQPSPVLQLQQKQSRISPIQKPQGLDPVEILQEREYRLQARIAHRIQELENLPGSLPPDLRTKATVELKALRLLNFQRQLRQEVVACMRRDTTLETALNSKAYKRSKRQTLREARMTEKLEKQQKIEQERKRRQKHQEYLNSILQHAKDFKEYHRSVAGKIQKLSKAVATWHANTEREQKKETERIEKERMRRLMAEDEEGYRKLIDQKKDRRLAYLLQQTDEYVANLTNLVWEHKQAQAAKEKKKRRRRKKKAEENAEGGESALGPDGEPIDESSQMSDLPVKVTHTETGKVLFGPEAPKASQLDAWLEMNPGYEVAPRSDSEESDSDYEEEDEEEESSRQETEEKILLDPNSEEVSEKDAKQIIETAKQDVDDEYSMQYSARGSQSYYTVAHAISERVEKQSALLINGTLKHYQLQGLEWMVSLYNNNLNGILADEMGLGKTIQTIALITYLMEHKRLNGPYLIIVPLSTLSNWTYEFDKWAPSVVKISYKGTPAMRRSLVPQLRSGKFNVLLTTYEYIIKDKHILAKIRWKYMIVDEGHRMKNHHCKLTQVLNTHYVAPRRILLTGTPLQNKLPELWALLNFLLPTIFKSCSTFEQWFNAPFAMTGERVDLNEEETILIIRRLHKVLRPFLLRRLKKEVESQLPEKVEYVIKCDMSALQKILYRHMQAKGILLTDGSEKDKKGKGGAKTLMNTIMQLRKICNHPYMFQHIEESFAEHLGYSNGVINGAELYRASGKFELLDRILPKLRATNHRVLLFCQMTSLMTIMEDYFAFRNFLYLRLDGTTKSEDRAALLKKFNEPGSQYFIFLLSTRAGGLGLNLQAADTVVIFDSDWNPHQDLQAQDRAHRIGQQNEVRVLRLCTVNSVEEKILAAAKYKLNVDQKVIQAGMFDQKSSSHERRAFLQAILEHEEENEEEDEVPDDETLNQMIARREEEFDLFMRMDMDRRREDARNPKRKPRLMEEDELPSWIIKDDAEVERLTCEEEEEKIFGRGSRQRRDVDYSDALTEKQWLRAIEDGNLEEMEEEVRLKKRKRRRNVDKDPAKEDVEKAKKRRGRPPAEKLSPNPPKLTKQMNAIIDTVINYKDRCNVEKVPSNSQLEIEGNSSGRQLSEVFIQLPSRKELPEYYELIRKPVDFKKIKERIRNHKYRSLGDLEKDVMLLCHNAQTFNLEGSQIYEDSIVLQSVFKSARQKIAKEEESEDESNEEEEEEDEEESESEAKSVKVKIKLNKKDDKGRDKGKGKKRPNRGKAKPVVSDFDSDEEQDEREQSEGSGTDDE
# protocol notes: SMARCA2 capillary electrophoresis protein assay in other cell lines (A549, NCI-H1568, HCT116, LU99, HCC-364, HCT-15, HCC4006, SK-N-AS)
# Type: cell-based
# Parameters: endogenous in cells; host or cells: RKO, NCI-H1568, A549, HCT116, LU99, HCC-364, HCT-15, HCC4006, SK-N-AS
# run parameters: NCI-H1568 (4 h); mean ± SD; read-out: SMARCA2 DC50
readout label: DC50 (µM)

compound="Cc1ncsc1-c1ccc([C@H](CCCCCN2CCC(c3ccc4c(c3)n(C3CCCC3)c3nc(=O)c5c(Br)cccc5n43)CC2)NC(=O)[C@@H]2C[C@@H](O)CN2C(=O)[C@@H](NC(=O)C2(F)CC2)C(C)(C)C)cc1 [compound 11]" study_target="SMARCA2 (Homo sapiens, UniProt P51531)" censoring_qualifier== recorded_value=0.008
compound="Cc1ncsc1-c1ccc([C@H](COC(C)CN2CCC(c3ccc4c(c3)n(C3CCCC3)c3nc(=O)c5c(Br)cccc5n43)CC2)NC(=O)[C@@H]2C[C@@H](O)CN2C(=O)[C@@H](NC(=O)C2(F)CC2)C(C)(C)C)cc1 (stereo partly drawn) [compound 9]" study_target="SMARCA2 (Homo sapiens, UniProt P51531)" censoring_qualifier== recorded_value=0.032
compound="CN1CCC(c2ccc3c(c2)n(C2CCCC2)c2nc(=O)c4c(Br)cccc4n32)CC1 [compound 3]" study_target="SMARCA2 (Homo sapiens, UniProt P51531)" censoring_qualifier=> recorded_value=2.5
compound="Cc1ncsc1-c1ccc(C(CCC(C)CCN2CCC(c3ccc4c(c3)n(C3CCCC3)c3nc(=O)c5c(Br)cccc5n43)CC2)NC(=O)C2CC(O)CN2C(=O)C(NC(=O)C2(F)CC2)C(C)(C)C)cc1 (stereo not drawn) [ACBI2]" study_target="SMARCA2 (Homo sapiens, UniProt P51531)" censoring_qualifier== recorded_value=0.013
compound="Cc1ncsc1-c1ccc([C@H](COC(C)(C)CN2CCC(c3ccc4c(c3)n(C3CCCC3)c3nc(=O)c5c(Br)cccc5n43)CC2)NC(=O)[C@@H]2C[C@@H](O)CN2C(=O)[C@@H](NC(=O)C2(F)CC2)C(C)(C)C)cc1 [compound 28]" study_target="SMARCA2 (Homo sapiens, UniProt P51531)" censoring_qualifier== recorded_value=0.018
compound="Cc1ncsc1-c1ccc(CNC(=O)[C@@H]2C[C@@H](O)CN2C(=O)[C@@H](NC(=O)C2(F)CC2)C(C)(C)C)c(OCCN2CCC(c3ccc4c(c3)n(C3CCCC3)c3nc(=O)c5c(Br)cccc5n43)CC2)c1 [compound 20]" study_target="SMARCA2 (Homo sapiens, UniProt P51531)" censoring_qualifier=> recorded_value=2.5
